Biological target: SHP2 (Homo sapiens)
Sequence (Q06124 1-593): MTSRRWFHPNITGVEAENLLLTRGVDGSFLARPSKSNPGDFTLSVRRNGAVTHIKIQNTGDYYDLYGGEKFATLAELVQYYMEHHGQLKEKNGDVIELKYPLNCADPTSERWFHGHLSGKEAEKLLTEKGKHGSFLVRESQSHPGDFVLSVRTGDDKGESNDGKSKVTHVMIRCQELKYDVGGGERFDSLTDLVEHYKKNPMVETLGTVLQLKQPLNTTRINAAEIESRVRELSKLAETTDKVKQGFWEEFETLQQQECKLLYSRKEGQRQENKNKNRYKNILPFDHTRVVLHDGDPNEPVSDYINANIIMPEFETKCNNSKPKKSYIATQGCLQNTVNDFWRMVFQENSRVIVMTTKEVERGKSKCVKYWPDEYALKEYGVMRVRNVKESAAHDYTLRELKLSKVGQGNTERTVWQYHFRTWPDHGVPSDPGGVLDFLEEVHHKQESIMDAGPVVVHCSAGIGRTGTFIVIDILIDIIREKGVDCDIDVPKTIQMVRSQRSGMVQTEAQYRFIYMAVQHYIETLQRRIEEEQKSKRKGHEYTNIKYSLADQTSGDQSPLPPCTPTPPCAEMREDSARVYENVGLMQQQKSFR
pIC50: −log10 of the molar value.
testReadout: pIC50

* CC1=C(C)C2=CC(=O)c3c(O)c4c(c(O)c3[C@@]2(C)CC1=O)OC[C@H]4C [Compound 3, Ajudecumin A] | 4.70
* CC1=C(C)C2=CC(=O)c3c(c(O)c4occ(C)c4c3O)[C@@]2(C)CC1 [Compound 2, Ajuforrestin A] | 5.15
* CC1=C(C)C2=CC(=O)C3=C(C(=O)c4oc(C)cc4C3=O)[C@@]2(C)CC1 [Compound 1] | 4.59
